Taken from patent US20220363763A1.

tested.target: T1, human PD-L1-his taq protein (human, UniProt Q9NZQ7 19-239, limits assumed)
T1 construct: also called recombinant PD-L1 protein; recombinant human PD-L1; not shown: his tag
T1 sequence (Q9NZQ7 19-239 limits assumed): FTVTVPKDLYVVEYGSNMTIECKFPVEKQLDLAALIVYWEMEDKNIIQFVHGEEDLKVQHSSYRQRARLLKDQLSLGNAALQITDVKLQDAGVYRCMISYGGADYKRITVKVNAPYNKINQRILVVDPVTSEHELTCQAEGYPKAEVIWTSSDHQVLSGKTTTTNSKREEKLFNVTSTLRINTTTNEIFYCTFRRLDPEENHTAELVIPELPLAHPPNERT
protocol.text: SPR Biacore T200, antibody captured, PD-L1-his injected
parameter: pKd
Lab note: report pKd as minus log10 of the concentration in molar units, number only.

Below, 2 binders whose answers are already recorded.
[
  {
    "binder": "Hu1210-8 (antibody, V domains shown, Hu1210 VH.1a x Vk.1a; human gamma 1 / kappa constant domains) VH: EVQLVESGGGLVKPGGSLRLSCAASGFTFSSYDMSWVRQAPGKGLEWVATISDGGGYIYYSDSVKGRFTISRDNAKNSLYLQMNSLRAEDTAVYYCAREFGKRYALDYWGQGTTVTVSS VL: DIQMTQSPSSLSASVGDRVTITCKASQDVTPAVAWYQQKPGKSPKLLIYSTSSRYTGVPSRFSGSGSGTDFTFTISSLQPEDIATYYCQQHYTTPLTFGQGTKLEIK",
    "parameter": "pKd",
    "data.value": 9.12
  },
  {
    "binder": "Hu1210-28 (antibody, V domains shown, Hu1210 VH.5a x Vk.2a; human gamma 1 / kappa constant domains) VH: EVQLVESGGGLVQPGGSLRLSCAASGFTFSSYDMSWVRQAPGKGLEWVATISDGGGYIYYSDSVKGRFTISRDNAKNSLYLQMNSLRAEDTAVYICAREFGKRYALDYWGQGTLVTVSS VL: DIQMTQSPSSLSASVGDRVTITCKASQDVTPAVAWYQQKPGKAPKLLIYSTSSRYTGVPDRFTGSGSGTDFTLTISSLQPEDFATYYCQQHYTTPLTFGQGTKLEIKR",
    "parameter": "pKd",
    "data.value": 9.08
  }
]

Now look at this one.
Exercise: Would you kindly share the measured pKd for Hu1210-17 (antibody, V domains shown, Hu1210 VH.4b x Vk.1; human gamma 1 / kappa constant domains) VH: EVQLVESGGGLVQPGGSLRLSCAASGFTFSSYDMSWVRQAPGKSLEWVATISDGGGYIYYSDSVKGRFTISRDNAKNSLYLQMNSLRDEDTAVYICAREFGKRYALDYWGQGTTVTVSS VL: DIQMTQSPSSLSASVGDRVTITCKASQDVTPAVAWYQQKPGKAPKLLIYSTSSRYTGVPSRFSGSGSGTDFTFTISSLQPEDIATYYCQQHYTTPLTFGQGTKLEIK ?
Solution: 9.71
